Data origin: patent US4665087A

Biological target: angiotensin-converting enzyme (Oryctolagus cuniculus)
Sequence (P12822 34-1310): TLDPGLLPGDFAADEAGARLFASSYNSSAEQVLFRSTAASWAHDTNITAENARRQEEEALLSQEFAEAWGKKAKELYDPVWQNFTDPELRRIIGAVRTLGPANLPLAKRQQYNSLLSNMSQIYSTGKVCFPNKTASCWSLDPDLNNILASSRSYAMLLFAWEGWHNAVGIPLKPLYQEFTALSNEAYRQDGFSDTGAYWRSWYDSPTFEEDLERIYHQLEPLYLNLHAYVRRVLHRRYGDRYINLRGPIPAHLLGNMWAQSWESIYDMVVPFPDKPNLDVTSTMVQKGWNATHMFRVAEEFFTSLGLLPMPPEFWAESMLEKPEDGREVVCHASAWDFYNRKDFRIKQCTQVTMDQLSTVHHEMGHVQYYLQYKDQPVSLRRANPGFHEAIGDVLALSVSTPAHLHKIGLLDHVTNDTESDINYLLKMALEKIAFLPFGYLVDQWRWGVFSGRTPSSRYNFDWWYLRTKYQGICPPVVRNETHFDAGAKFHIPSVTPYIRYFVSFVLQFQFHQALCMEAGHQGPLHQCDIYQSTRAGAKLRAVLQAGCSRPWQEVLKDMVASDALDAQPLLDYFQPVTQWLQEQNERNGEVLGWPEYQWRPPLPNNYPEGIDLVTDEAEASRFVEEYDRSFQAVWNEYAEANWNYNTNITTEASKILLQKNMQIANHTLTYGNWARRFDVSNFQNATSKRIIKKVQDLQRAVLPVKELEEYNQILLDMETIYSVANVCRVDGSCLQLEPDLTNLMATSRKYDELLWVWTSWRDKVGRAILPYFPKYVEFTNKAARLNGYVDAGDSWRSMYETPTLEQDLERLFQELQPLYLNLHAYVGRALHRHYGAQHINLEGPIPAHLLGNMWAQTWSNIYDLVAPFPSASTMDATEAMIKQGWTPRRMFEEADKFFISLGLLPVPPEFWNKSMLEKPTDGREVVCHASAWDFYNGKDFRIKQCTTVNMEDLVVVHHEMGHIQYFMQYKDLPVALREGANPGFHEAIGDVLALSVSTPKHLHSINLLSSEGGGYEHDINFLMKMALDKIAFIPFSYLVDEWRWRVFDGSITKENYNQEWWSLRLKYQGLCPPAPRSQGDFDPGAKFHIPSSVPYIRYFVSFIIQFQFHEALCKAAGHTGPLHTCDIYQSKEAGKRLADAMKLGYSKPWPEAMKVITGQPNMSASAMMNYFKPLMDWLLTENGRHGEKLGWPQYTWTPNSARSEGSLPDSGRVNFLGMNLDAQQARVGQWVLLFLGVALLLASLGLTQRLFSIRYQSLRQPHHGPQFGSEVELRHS
pIC50: −log10 of the molar value. Counter-ions that a name gives are not always drawn.
Quantity Kind: pIC50

Could you share which pIC50 value was measured for NCCCCN(C[C@@H](CCc1ccccc1)C(=O)O)C(=O)N1c2ccccc2C[C@H]1C(=O)O [Example 9, disodium salt] ?
~8.22
